# Test system: white blood cells, red blood cells, and platelets
# assay-comment: Third round screening: plasma MPO, ferritin and RANTES as blood cell damage indicators
# Type: cell-based
# condition-parameters: inhibitor in Streck B formulation; 7-day room temperature storage; data not shown
test-readout: adverse effects on white blood cells, red blood cells and platelet

Take a look at these entries with their results.
>  <compound>
COc1ccc(CCN(C)CCCC(C#N)(c2ccc(OC)c(OC)c2)C(C)C)cc1OC (stereo not shown)

>  <result>
little adverse effects

$$$$
>  <compound>
Cc1cccc(C)c1OCC(C)N (stereo not shown)

>  <result>
little adverse effects

$$$$
>  <compound>
CCCCN1CCCCC1C(=O)Nc1c(C)cccc1C (stereo not shown)

>  <result>
little adverse effects

$$$$
>  <compound>
COc1ccc([C@@H]2Sc3ccccc3N(CCN(C)C)C(=O)[C@@H]2OC(C)=O)cc1

>  <result>
little adverse effects

$$$$
>  <compound>
C=C[C@H]1C[N@@]2CC[C@H]1C[C@@H]2[C@@H](O)c1ccnc2ccc(OC)cc12

>  <result>
little adverse effects

$$$$

Data request, read-out adverse effects on white blood cells, red blood cells and platelet, for Cc1cccc(C)c1NC(=O)C1CCCCN1C (stereo not shown) [mepivacaine]
little adverse effects

Please report the recorded adverse effects on white blood cells, red blood cells and platelet for CCN(CC)CC(=O)Nc1c(C)cccc1C .
little adverse effects
